cytotoxicity at 10 µM listing for selected compounds.
# Method Notes: Toxicity liver stage against HepG2, at 10uM
# Type: cell-based
# Set-up: test concentration 10 uM, cell line HepG2-A16-CD81EGFP
# Experimental Parameters: human, HepG2-A16-CD81EGFP cells; read-out: INHIBITION
Observed Property: cytotoxicity at 10 µM (%)

                                    compound      observed_property  meas_value
 0                  Fc1cccc(Cl)c1CNCc1ccccn1  cytotoxicity at 10 µM       -2.25
 1  COC(=O)c1ccc(C(=O)N2CCCC(Nc3ccc(F)cc3)C2)cc1 (centres undefined)  cytotoxicity at 10 µM        1.34
 2  CNC(=O)Cc1ccc(-n2ccnc2-c2cccc(C(=O)O)c2)cc1  cytotoxicity at 10 µM        -7.9
 3  CC(C)(C(=O)NCCCc1nc2ccccc2[nH]1)n1cc(Cl)cn1  cytotoxicity at 10 µM        4.05
 4  CCn1cc(NC(=O)C2CCN(CC(=O)N3CCOCC3)CC2)cn1  cytotoxicity at 10 µM       -3.46
 5  Cc1nnc(N2C[C@@H](OCCCn3cccn3)[C@H]3OCCC[C@H]32)s1  cytotoxicity at 10 µM       -8.19
 6  N#Cc1cccc(NC(=O)N[C@H](CO)Cc2ccc(O)cc2)c1  cytotoxicity at 10 µM       0.597
 7  COc1ccc(Cc2ncc3c(n2)CN(C(=O)C(C)(C)C)C3)cc1  cytotoxicity at 10 µM        -1.1
 8        O=C(NCc1ccc(Cl)s1)NCc1nnc2n1CCCCC2  cytotoxicity at 10 µM       -2.06
 9  CC(CN1CCOCC1)NC(=O)N(C)Cc1ccc(Cl)s1 (centres undefined)  cytotoxicity at 10 µM        7.21
10  O=C(CCCc1cn[nH]c1)N1CCOCC(O)C1 (centres undefined)  cytotoxicity at 10 µM         -23
11  CC(C)c1ncc(CN2C[C@@H](CN3CCC(O)CC3)[C@@H](CO)C2)cn1  cytotoxicity at 10 µM       -7.79
12  CN(CCNc1cc(N2CCCC2CO)ncn1)Cc1ccccc1 (centres undefined)  cytotoxicity at 10 µM        15.7
13  CCc1ccc(CN(C)Cc2cnc(S(=O)(=O)CC)n2CCOC)cc1  cytotoxicity at 10 µM       -2.19
14               COc1ccc(F)c(-c2ccnc(N)c2)c1  cytotoxicity at 10 µM        8.52
15      CN(Cc1ccco1)C(=O)CN1CCN(C)c2ccccc2C1  cytotoxicity at 10 µM        -7.2
16  O=C1[C@H]2CN(Cc3ccccc3)C[C@H]2CN1CCN1CCCC1  cytotoxicity at 10 µM       -3.84
17  CC(C)c1nc(C2CCCN(c3nccc(C(F)(F)F)n3)C2)no1 (centres undefined)  cytotoxicity at 10 µM        5.83
18           O=C(c1cccnc1SCc1ccccc1)N1CCOCC1  cytotoxicity at 10 µM        4.74
19  Cn1cc2c(n1)C(CNCc1ccco1)OCC2 (centres undefined)  cytotoxicity at 10 µM       -1.54
20  CCC(=O)N1CC[C@H]2C(=O)N(Cc3ccc(OC)cc3)CCO[C@H]2C1  cytotoxicity at 10 µM        -114
21             CCS(=O)(=O)N1CCN(C)c2ncccc2C1  cytotoxicity at 10 µM        2.88
22  CC(=O)N1CCCN(C(=O)c2ccc(Sc3ccccn3)cc2)CC1  cytotoxicity at 10 µM        10.9
23  CCS(=O)(=O)N1C[C@@H](c2cc(O)nc(C)n2)[C@H](c2ccccc2F)C1  cytotoxicity at 10 µM        7.17

Source listed as ChEMBL document CHEMBL4513216.
